system: 186277-243-T-J2-PDC complex spheroid viability; assay: Anticancer human tumor 186277-243-T-J2-PDC patient-derived colon adenocarcinoma cell line growth inhibition [POLQ]; conditions: second compound 0.0316 µM; first compound 0.316 µM; active = viability on the fitted dose curve at most 10% of control; inactive = the rest;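 note: spheroids exposed to compounds for seven days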
Labels: T = active, F = inactive

• COc1cc(C2c3cc4c(cc3C(OC3OC5COC(C)OC5C(O)C3O)C3COC(=O)C23)OCO4)cc(OC)c1O (centres undefined) + COC1C(OC(N)=O)C(O)C(Oc2ccc3c(O)c(NC(=O)c4ccc(O)c(CC=C(C)C)c4)c(=O)oc3c2C)OC1(C)C = F
• COc1cccc(OCCCN)c1-c1cc(Nc2cnc(C#N)cn2)n[nH]1 + Cc1cccc(N(C)C(=O)C2C(O)CCN2c2nc(C)cc(C(F)(F)F)c2C#N)c1 = T
• COc1cc2cc(C(=O)CCC(=O)O)sc2cc1OC + COC1C(OC(N)=O)C(O)C(Oc2ccc3c(O)c(NC(=O)c4ccc(O)c(CC=C(C)C)c4)c(=O)oc3c2C)OC1(C)C = F
• CC1COCCN1c1cc(C2(O)CC3CCC(C2)O3)c2cnn(-c3ccn[nH]3)c2n1 (centres undefined) + COC1C(OC(N)=O)C(O)C(Oc2ccc3c(O)c(NC(=O)c4ccc(O)c(CC=C(C)C)c4)c(=O)oc3c2C)OC1(C)C = T
